Listed sequences paired with reported self-splicing fitness (ln)
Experiment: self-splicing fitness, log relative to wild type (ln ratio); higher = more splicing; Tetrahymena group I intron in knt gene, E. coli kanamycin selection, DiMSum; sequences stand for … in CUCUCU…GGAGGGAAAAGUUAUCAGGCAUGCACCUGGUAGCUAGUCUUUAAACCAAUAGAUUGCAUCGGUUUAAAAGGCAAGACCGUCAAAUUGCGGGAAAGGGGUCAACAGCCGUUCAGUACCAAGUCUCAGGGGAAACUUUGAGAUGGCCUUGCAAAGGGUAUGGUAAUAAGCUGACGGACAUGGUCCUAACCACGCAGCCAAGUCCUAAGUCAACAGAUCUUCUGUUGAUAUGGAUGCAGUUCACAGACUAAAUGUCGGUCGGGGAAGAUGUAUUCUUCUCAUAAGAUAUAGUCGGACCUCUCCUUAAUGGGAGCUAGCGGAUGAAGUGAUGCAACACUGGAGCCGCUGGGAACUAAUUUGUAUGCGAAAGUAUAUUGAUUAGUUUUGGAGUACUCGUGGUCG;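 further: selection with 25 µg/mL kanamycin versus none on LB agar overnight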
Details: 30 °C
Could you respond with only the numeric value?

query-sequence: GCCGAGCAAUAUUACGUCAU
self-splicing fitness (ln): -3.5

query-sequence: UACAAGCAAUAUUACGGUCA
self-splicing fitness (ln): 0.157

query-sequence: ACGCAGCAAUAUUACGAGUA
self-splicing fitness (ln): -3.72

query-sequence: AGGGAGCAAUAUUACGUGUC
self-splicing fitness (ln): -3.95

query-sequence: AUCUAGCAAUAUUACGCUAG
self-splicing fitness (ln): -3.91

query-sequence: GAUUAGCAAUAUUACGAGAG
self-splicing fitness (ln): -3.5

query-sequence: CCUCAGCAAUAUUACGCGCU
self-splicing fitness (ln): -2

query-sequence: AGAUAGCAAUAUUACGUCUC
self-splicing fitness (ln): -3.01

query-sequence: AGGUAGCAAUAUUACGUUGU
self-splicing fitness (ln): -3.39

query-sequence: AGGGAGCAAUAUUACGUACC
self-splicing fitness (ln): -2.86

Prompt line: Query (sequence): ACGAAGCAAUAUUACGACCU ; field requested: self-splicing fitness (ln)
Response line: 0.0549

Prompt line: Give its self-splicing fitness (ln) value. Item: CCUGAGCAAUAUUACGCCAC
Response line: -3.2

Prompt line: Please look up its self-splicing fitness (ln): CCGGAGCAAUAUUACGUCCU
Response line: -4.9

Prompt line: Param item = CGGCAGCAAUAUUACGGUCU ; retrieve measured self-splicing fitness (ln).
Response line: -0.384

Prompt line: Which self-splicing fitness (ln) is listed for AGGAAGCAAUAUUACGGCCA ?
Response line: -0.118

Prompt line: Consider the sequence shown here: CUCGAGCAAUAUUACGAUUU What is its recorded self-splicing fitness (ln)?
Response line: -3.73
